- Tested target: CYP2D6 (Homo sapiens)
- Construct: host or cells: heterologous cell systems (not specified)
- Sequence (P10635 whole entry): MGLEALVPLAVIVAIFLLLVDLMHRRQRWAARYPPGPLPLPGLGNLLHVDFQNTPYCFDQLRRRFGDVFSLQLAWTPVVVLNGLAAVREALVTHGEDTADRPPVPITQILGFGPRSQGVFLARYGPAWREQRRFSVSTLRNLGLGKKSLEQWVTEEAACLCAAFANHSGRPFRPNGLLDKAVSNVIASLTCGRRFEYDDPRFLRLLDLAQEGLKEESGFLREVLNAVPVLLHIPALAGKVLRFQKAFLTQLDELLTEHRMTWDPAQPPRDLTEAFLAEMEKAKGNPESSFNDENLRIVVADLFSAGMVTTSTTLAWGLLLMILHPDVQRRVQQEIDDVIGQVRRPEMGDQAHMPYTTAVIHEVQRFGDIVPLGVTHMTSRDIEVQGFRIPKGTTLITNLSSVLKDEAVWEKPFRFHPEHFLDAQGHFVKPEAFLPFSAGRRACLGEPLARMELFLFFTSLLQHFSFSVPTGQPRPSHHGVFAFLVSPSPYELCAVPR
- Test summary: In vitro stability with recombinant human CYP2D6
- Assay type: in vitro ADME
- Experimental parameters: recombinant human isozyme; read-out: t1/2 following incubation with CYP2D6 (converted)
Give half-life for every item shown.
Answers are plain numbers, in h.

Provide each entry's half-life from the list below.
1. [2H]C([2H])([2H])c1ccc(=O)n(-c2ccccc2)c1
2. Cc1ccc(=O)n(-c2ccccc2)c1 [Pirfenidone, pirfenidone, reference compound]

A)
2.72
2.3

* * *

- Tested target: CYP2C19 (Homo sapiens)
- Construct: host or cells: heterologous cell systems (not specified)
- Sequence (P33261 whole entry): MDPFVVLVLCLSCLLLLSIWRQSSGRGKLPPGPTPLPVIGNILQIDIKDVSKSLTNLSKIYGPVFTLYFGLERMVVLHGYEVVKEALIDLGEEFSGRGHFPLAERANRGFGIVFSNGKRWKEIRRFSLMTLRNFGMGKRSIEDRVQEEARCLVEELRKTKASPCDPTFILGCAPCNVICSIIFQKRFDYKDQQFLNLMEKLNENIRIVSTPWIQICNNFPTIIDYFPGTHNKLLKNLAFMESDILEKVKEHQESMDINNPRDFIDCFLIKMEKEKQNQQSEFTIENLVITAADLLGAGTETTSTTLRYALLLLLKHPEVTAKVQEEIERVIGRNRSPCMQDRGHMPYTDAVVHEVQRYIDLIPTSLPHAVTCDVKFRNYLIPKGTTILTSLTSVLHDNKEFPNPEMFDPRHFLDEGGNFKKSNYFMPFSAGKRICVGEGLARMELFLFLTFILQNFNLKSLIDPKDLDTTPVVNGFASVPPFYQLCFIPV
- Test summary: In vitro stability with recombinant human CYP2C19
- Type: in vitro ADME
- Experimental parameters: recombinant human isozyme; read-out: t1/2 following incubation with CYP2C19 (converted)
Observable: half-life
Number first, unit second.

Cc1ccc(=O)n(-c2ccccc2)c1 [Pirfenidone, pirfenidone, reference compound]: 2.13 h

Lab note: next molecule to report on.
Q) Please report half-life for the following molecule: [2H]C([2H])([2H])c1ccc(=O)n(-c2ccccc2)c1
A) 3.67 h

* * *

- Test summary: clinical
- Experimental parameters: both sexes, human, in vivo, 550 mg, Cmax, parent
Kindly state Cmax for each of the entries shown.
Give bare numbers, in ng/mL.

Provide Cmax for all items below, preserving their order.
1. [2H]C([2H])([2H])c1ccc(=O)n(-c2ccccc2)c1
2. Cc1ccc(=O)n(-c2ccccc2)c1 [Pirfenidone, pirfenidone, reference compound]

A)
9170
12700

* * *

- Test summary: clinical
- Experimental parameters: both sexes, human, in vivo, 550 mg, AUC0-24, parent
Observable: AUC(0-t)

Cc1ccc(=O)n(-c2ccccc2)c1 [Pirfenidone, pirfenidone, reference compound]: 44100 ng·h/mL

Read the next record carefully.
Q) Tell me its AUC(0-t) given [2H]C([2H])([2H])c1ccc(=O)n(-c2ccccc2)c1 as the entry.
A) 34100 ng·h/mL

* * *

- Tested target: CYP1A2 (Homo sapiens)
- Construct: host or cells: heterologous cell systems (not specified)
- Sequence (P05177 1-516): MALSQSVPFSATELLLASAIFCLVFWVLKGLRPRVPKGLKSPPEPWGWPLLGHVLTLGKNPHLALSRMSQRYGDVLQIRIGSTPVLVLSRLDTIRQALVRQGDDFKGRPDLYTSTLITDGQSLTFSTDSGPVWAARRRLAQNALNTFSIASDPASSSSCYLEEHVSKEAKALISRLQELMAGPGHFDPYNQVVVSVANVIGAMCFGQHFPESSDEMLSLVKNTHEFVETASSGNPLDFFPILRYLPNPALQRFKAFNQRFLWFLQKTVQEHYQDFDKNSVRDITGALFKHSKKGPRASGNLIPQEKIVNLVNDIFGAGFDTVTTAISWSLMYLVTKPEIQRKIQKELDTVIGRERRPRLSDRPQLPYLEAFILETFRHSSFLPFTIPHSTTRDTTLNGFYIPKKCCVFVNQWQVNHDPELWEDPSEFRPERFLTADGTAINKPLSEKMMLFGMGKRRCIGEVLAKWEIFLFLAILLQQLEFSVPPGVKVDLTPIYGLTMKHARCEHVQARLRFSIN
- Test summary: In vitro stability with recombinant human CYP1A2
- Format: in vitro ADME
- Experimental parameters: recombinant human isozyme; read-out: t1/2 following incubation with CYP1A2 (converted)
Would you mind telling me the reported half-life of each entry?
One number for each entry, in h.

Cc1ccc(=O)n(-c2ccccc2)c1 [Pirfenidone, pirfenidone, reference compound]: 3.18

Now examine the next entry.
Q) State its half-life: [2H]C([2H])([2H])c1ccc(=O)n(-c2ccccc2)c1
A) 9.08

This collection of values is drawn from patent US12622899B2.
